Quick note: these are pIC50 numbers for system: microsomal triglyceride transfer protein (MTP) (Mesocricetus auratus)
Sequence (P55158 19-895): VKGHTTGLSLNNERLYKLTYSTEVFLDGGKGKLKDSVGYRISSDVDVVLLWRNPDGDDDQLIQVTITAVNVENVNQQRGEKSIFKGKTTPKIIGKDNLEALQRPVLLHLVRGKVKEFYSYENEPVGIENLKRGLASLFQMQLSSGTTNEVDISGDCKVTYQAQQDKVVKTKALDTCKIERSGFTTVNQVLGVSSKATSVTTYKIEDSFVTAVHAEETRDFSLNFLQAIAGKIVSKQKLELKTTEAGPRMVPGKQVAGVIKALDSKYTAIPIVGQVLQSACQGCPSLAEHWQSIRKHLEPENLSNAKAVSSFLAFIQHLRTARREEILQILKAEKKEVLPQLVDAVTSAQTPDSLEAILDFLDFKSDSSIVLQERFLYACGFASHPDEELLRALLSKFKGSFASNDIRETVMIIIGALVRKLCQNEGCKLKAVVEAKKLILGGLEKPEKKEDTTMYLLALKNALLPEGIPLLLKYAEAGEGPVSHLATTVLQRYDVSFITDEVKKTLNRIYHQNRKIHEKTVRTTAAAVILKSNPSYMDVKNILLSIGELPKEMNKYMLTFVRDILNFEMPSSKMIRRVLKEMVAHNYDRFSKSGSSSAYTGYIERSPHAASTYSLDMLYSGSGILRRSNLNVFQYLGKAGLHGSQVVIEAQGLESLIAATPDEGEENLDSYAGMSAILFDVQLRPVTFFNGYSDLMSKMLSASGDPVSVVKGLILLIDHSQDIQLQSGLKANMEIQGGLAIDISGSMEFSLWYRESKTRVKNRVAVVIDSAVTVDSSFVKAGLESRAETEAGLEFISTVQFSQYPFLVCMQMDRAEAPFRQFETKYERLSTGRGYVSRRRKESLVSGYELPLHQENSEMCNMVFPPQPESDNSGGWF
pIC50 (log units): -log10 of the concentration in mol/L.

Known pIC50 results, listed for orientation:
Cc1cccc(C(=O)Nc2cccc(OC3CCN(C(=O)CC(C)C)CC3)c2)c1-c1ccc(OC(F)(F)F)cc1 [Example 129]
6.86
Cc1cccc(C(=O)Nc2cccc(OC3CCN(C(=O)c4cccnc4)CC3)c2)c1-c1ccc(OC(F)(F)F)cc1 [Example 106]
6.74
Cc1cccc(C(=O)Nc2cccc(OC3CCN(C(=O)Nc4ccc(F)cc4)CC3)c2)c1-c1ccc(OC(F)(F)F)cc1 [Example 25]
6.44
CCNC(=O)N1CCC(Oc2cccc(NC(=O)c3cccc(C)c3-c3ccc(OC(F)(F)F)cc3)c2)CC1 [Example 12]
7.06
Cc1cccc(C(=O)Nc2cccc(OC3CCN(C(=O)Nc4cccc(C#N)c4)CC3)c2)c1-c1ccc(OC(F)(F)F)cc1 [Example 37]
7.19

*Q* I would be grateful if you could share the reported pIC50 for CCOC(=O)CCCCCNC(=O)N1CCC(Oc2cccc(NC(=O)c3cccc(C)c3-c3ccc(OC(F)(F)F)cc3)c2)CC1 [Example 45] .
*A* 6.11

*Q* Name the recorded pIC50 for Cc1cccc(C(=O)Nc2cccc(OC3CCN(C(=O)Oc4ccc([N+](=O)[O-])cc4)CC3)c2)c1-c1ccc(OC(F)(F)F)cc1 [Example 9] .
*A* 7.29
